Provide the recorded z-score for the entries that follow.
# TARGET_UNDER_TEST: Metabotropic glutamate receptor 8 (Rattus norvegicus) (UniProt P70579)
# Sequence (P70579 whole entry, looked up): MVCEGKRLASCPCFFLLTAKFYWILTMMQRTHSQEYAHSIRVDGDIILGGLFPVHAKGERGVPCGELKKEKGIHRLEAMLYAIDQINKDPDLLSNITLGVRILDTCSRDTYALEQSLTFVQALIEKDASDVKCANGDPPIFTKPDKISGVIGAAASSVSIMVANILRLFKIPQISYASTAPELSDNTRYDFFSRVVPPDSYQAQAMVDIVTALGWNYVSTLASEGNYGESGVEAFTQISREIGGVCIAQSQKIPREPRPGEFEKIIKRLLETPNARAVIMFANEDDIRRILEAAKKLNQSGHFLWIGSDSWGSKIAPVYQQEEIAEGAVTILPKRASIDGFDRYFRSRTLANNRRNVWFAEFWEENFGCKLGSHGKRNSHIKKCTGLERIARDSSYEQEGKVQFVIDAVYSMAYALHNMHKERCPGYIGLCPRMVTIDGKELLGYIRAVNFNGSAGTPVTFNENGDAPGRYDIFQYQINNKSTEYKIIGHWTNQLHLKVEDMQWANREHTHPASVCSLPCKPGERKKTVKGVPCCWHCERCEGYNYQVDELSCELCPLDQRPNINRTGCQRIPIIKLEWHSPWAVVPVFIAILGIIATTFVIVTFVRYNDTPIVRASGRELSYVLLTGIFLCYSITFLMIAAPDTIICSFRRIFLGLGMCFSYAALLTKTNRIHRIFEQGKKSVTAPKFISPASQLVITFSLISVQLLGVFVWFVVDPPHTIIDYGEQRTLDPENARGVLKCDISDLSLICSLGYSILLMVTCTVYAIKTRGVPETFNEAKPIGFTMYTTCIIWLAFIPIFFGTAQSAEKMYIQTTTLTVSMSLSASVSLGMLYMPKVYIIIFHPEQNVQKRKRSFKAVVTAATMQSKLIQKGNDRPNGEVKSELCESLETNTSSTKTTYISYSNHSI
# ASSAY_INFO: mGluR8 Gi/Go-coupled signaling modulation – cell-based, rat, thallium flux, HTS, primary screen (AID 488969)
# CONDITION_LABEL: HEK293 rat mGluR8, GIRK thallium flux, FluoZin2; at 10 µM; stronger effect = higher value; submaximal glutamate (EC20) added with thallium
Over roughly 110,000 compounds, “z-score” has its median near -0.1; the highest 2% begin near 2. Shown is part of a subset that was picked to be rich in the highest values.
Number only, no unit.

Record Cc1ccc(N/C(SCc2ccccc2C)=C(/C#N)C(=O)NCc2ccco2)cc1C . Reported z-score: -0.331

For Cc1cccc(N2C(=O)CC(Sc3nc(-c4ccccc4)c4cc(Cl)ccc4n3)C2=O)c1 (stereo not given) the compound record lists z-score as -0.887

Cn1c(SCC(=O)Nc2ccccc2)nnc1-c1ccc(NC(=O)CCc2ccccc2)cc1 yielded z-score of -0.164

Per the record, Cc1nc(CS(=O)c2ccc(Cl)cc2)cc(NCc2ccc(Cl)cc2Cl)n1 (stereo not given) has z-score of 0.31

What the record says about CC(C)OC(=O)CSc1nnc(Cc2ccccc2)n1Cc1ccco1 : z-score is -0.4

z-score reading for Cc1cc(C)[n+](-c2ccc(F)cc2)c2[nH]c(=O)[nH]c(=O)c12 : 0.407

Form: compound = Cc1ccc(-c2nnn(CC(=O)N(c3ccccc3)C(C(=O)NC(C)(C)C)c3cccs3)n2)o1 (stereo not given) ; z-score = -0.243

For reference, reported z-score for CC(C)CNC(=O)c1ccccc1NC(=O)Nc1ccccc1 stands at 0.337

Record summary for CCC(C)NC(=O)c1ccccc1C(=O)NC(C)CC (stereo not given) : reported z-score = 0.631

Please fill in: z-score reported for Cc1ccc(C(=O)C(C(=O)/C=C/c2ccccc2)=C2SCCCS2)cc1 = 0.0319

###

# TARGET_UNDER_TEST: Metabotropic glutamate receptor 8 (Rattus norvegicus) (UniProt P70579)
# ASSAY_INFO: mGluR8 Gi/Go-coupled signaling modulation – cell-based, rat, thallium flux, HTS, primary screen (AID 488969)
# CONDITION_LABEL: HEK293 rat mGluR8, GIRK (G protein-gated inwardly rectifying potassium channel) thallium flux, FluoZin2; at 10 µM; stronger effect = higher value; submaximal glutamate (EC20) added with thallium
Whole data set: some 110,000 compounds, median “z-score” near -0.1, cut for the highest 2% near 2. Only a selection was taken, and the highest values are over-represented in it overall.
REPORTED_PROPERTY: z-score
Please reply with the number alone, leaving off any unit.

Measured on Metabotropic glutamate receptor 8 (Rattus norvegicus) (UniProt P70579), O=c1[nH]c2ccccc2n1C1CCCCC1 has a documented z-score of -1.04

The recorded z-score with Metabotropic glutamate receptor 8 (Rattus norvegicus) (UniProt P70579) for O=c1/c(=C\c2cccnc2)sc2nc3ccccc3n12 was -0.0361

Item COC(=O)c1[nH]c2ccc(C)cc2c1NC(=O)CCN1CCN(Cc2ccc3c(c2)OCO3)CC1 ; assay system Metabotropic glutamate receptor 8 (Rattus norvegicus) (UniProt P70579); z-score reported as 9.23

GET /values?item= Cc1[nH]c2ccccc2c1NC(=O)CN1CCN(Cc2ccc3c(c2)OCO3)CC1 &system= Metabotropic glutamate receptor 8 (Rattus norvegicus) (UniProt P70579) returns z-score: -0.288

Considering COc1ccc(-c2nc(-c3cccc(C)c3)[nH]c(=O)c2C#N)cc1 , its z-score with Metabotropic glutamate receptor 8 (Rattus norvegicus) (UniProt P70579) was recorded as -0.296

Field z-score (system: Metabotropic glutamate receptor 8 (Rattus norvegicus) (UniProt P70579)) for entry Cc1cc(/C=c2/sc3nc4ccccc4n3c2=O)c(C)n1-c1ccccn1 = 6.08
